tested on: MDA-MB-231 tumor organoids; assay: Tumor organoid cytotoxicity, MDA-MB-231; type: cell-based; conditions: Homo sapiens, MDA-MB-231, Compound 13 2.25 μM; read-out: IC50 doxorubicin (nM) in MDA-MB-231
valueKind: IC50

COc1cccc2c1C(=O)c1c(O)c3c(c(O)c1C2=O)C[C@@](O)(C(=O)CO)C[C@@H]3O[C@H]1C[C@H](N)[C@H](O)[C@H](C)O1 :: 81.5 nM

====

system: Colo678 cells; assay: Colo678 cell viability, combination with chemotherapy; format: cell-based; conditions: Homo sapiens, COLO-678, Colo678 cells; Compound 20 0 μM; read-out: IC50 5-FU
pIC50: −log10 of the molar value.
valueKind: pIC50

O=c1[nH]cc(F)c(=O)[nH]1 :: 1.83

====

test system: SUM149PT tumor organoids; assay: Tumor organoid cytotoxicity (CellTiter Glo 3D), SUM149PT; format: cell-based; conditions: SUM149PT tumor organoids; combined with Compound 6
Overview of recorded improvement of IC50 potency for various compounds
valueKind: improvement of IC50 potency (fold)

O=C(c1cc(Cc2n[nH]c(=O)c3ccccc23)ccc1F)N1CCN(C(=O)C2CC2)CC1 :: 9
CCc1cc2ncc(CN3CCN(c4ccc(C(=O)NC)nc4)CC3)cc2[nH]c1=O :: 2.7
COc1cccc2c1C(=O)c1c(O)c3c(c(O)c1C2=O)C[C@@](O)(C(=O)CO)C[C@@H]3O[C@H]1C[C@H](N)[C@H](O)[C@H](C)O1 :: 2
O=c1[nH]cc(F)c(=O)[nH]1 :: 10

====

tested on: SW948 tumor organoids; assay: cells; settings: Homo sapiens, SW948, read-out: IC50 of chemotherapy alone
pIC50: −log10 of the molar value.
valueKind: pIC50

O=c1[nH]cc(F)c(=O)[nH]1 :: 3.52

====

system: Colo678 cells; assay: Colo678 cell viability, combination with chemotherapy; type: cell-based; details: Homo sapiens, COLO-678, Colo678 cells; Compound 20 4 μM; read-out: IC50 5-FU
valueKind: IC50 (µM)

O=c1[nH]cc(F)c(=O)[nH]1 :: 60

====

system: MiaPaca2 cells; assay: MiaPaca2 cell viability, combination with chemotherapy; type: cell-based; settings: Homo sapiens, MIA PaCa-2, MiaPaca2 cells; Compound 7 9 μM; read-out: IC50 5-FU
pIC50: −log10 of the molar value.
valueKind: pIC50

O=c1[nH]cc(F)c(=O)[nH]1 [Compound 5-FU, 5-fluorouracil] :: 4.33

====

tested on: MDA-MB-231 tumor organoids; test: Tumor organoid cytotoxicity, MDA-MB-231; type: cell-based; settings: Homo sapiens, MDA-MB-231, Compound 13 0 μM; read-out: IC50 doxorubicin (nM) in MDA-MB-231
valueKind: IC50

COc1cccc2c1C(=O)c1c(O)c3c(c(O)c1C2=O)C[C@@](O)(C(=O)CO)C[C@@H]3O[C@H]1C[C@H](N)[C@H](O)[C@H](C)O1 :: 346 nM

====

system: HCT116 tumor organoids; assay: Viability of isolated EMT phenotype HCT116 tumor organoids; type: cell-based; conditions: Homo sapiens, HCT-116, 72 h, olaparib alone
valueKind: IC50

O=C(c1cc(Cc2n[nH]c(=O)c3ccccc23)ccc1F)N1CCN(C(=O)C2CC2)CC1 [olaparib] :: ~600 µM

====

tested on: MiaPaca2 cells; assay: MiaPaca2 cell viability, combination with chemotherapy; format: cell-based; conditions: Homo sapiens, MIA PaCa-2, MiaPaca2 cells; Compound 12 4 μM; read-out: IC50 5-FU
valueKind: IC50 (µM)

O=c1[nH]cc(F)c(=O)[nH]1 :: 16.3

====

system: MiaPaca2 cells; assay: MiaPaca2 cell viability, combination with chemotherapy; assay type: cell-based; conditions: Homo sapiens, MIA PaCa-2, MiaPaca2 cells; Compound 7 0 μM; read-out: IC50 5-FU
valueKind: IC50 (µM)

O=c1[nH]cc(F)c(=O)[nH]1 [Compound 5-FU, 5-fluorouracil] :: 68.2

====

test system: Colo678 cells; experiment: Colo678 cell viability, combination with chemotherapy; format: cell-based; details: Homo sapiens, COLO-678, Colo678 cells; Compound 12 0 μM; read-out: IC50 5-FU
pIC50: −log10 of the molar value.
valueKind: pIC50

O=c1[nH]cc(F)c(=O)[nH]1 :: 1.12

====

tested on: Colo678 cells; test: Colo678 cell viability, combination with chemotherapy; assay type: cell-based; conditions: Homo sapiens, COLO-678, Colo678 cells; Compound 12 1 μM; read-out: IC50 5-FU
valueKind: IC50

O=c1[nH]cc(F)c(=O)[nH]1 [Compound 5-FU, 5-fluorouracil] :: 549 µM

====

System: MDA-MB-231 tumor organoids
Test: Tumor organoid cytotoxicity, MDA-MB-231
Type: cell-based
Conditions: Homo sapiens, MDA-MB-231, Compound 13 2 μM; read-out: IC50 Olaparib (μM) in MDA-MB-231
Procedure: Tumor organoid culture—Cell lines were cultured as tumor organoids by seeding 2,000 to 5,000 cells/well into uncoated 96 well U-bottom Ultra Low Attachment Microplates (Corning) using their corresponding medium. Cell aggregation was then promoted by centrifugation of the plates for 15 min at 1,000 rpm followed by the addition of Matrigel (Corning) to a 2-5% final concentration. Tumor organoids were maintained under standard cell culture conditions for 72 h prior to drug treatment. […]
valueKind: IC50 (µM)

O=C(c1cc(Cc2n[nH]c(=O)c3ccccc23)ccc1F)N1CCN(C(=O)C2CC2)CC1 :: 18.7

====

system: Colo678 cells; assay: Colo678 cell viability, combination with chemotherapy; format: cell-based; details: Homo sapiens, COLO-678, Colo678 cells; Compound 13 3.5 μM; read-out: IC50 5-FU
valueKind: IC50

O=c1[nH]cc(F)c(=O)[nH]1 :: 544 µM

====

tested on: Colo678 cells; test: Colo678 cell viability, combination with chemotherapy; assay type: cell-based; settings: Homo sapiens, COLO-678, Colo678 cells; Compound 13 4 μM; read-out: IC50 5-FU
pIC50: −log10 of the molar value.
valueKind: pIC50

O=c1[nH]cc(F)c(=O)[nH]1 :: 3.61

====

tested on: MiaPaca2 cells; assay: MiaPaca2 cell viability, combination with chemotherapy; type: cell-based; settings: Homo sapiens, MIA PaCa-2, MiaPaca2 cells; Compound 6.11 0 μM; read-out: IC50 5-FU
pIC50: −log10 of the molar value.
valueKind: pIC50

O=c1[nH]cc(F)c(=O)[nH]1 [Compound 5-FU, 5-fluorouracil] :: 3.62

====

system: MiaPaca2 cells; assay: MiaPaca2 cell viability, combination with chemotherapy; assay type: cell-based; conditions: Homo sapiens, MIA PaCa-2, MiaPaca2 cells; Compound 7 8 μM; read-out: IC50 5-FU
valueKind: IC50 (µM)

O=c1[nH]cc(F)c(=O)[nH]1 [Compound 5-FU, 5-fluorouracil] :: 56.7

====

system: MiaPaca2 cells; assay: MiaPaca2 cell viability, combination with chemotherapy; type: cell-based; conditions: Homo sapiens, MIA PaCa-2, MiaPaca2 cells; Compound 8 0 μM; read-out: IC50 5-FU
valueKind: IC50 (µM)

O=c1[nH]cc(F)c(=O)[nH]1 [Compound 5-FU, 5-fluorouracil] :: 55.6

====

test system: Colo678 cells; assay: Colo678 cell viability, combination with chemotherapy; assay type: cell-based; conditions: Homo sapiens, COLO-678, Colo678 cells; Compound 20 4.5 μM; read-out: IC50 5-FU
valueKind: IC50

O=c1[nH]cc(F)c(=O)[nH]1 :: 34.5 µM

====

test system: MiaPaca2 cells; experiment: MiaPaca2 cell viability, combination with chemotherapy; format: cell-based; conditions: Homo sapiens, MIA PaCa-2, MiaPaca2 cells; Compound 6.11 4.5 μM; read-out: IC50 5-FU
valueKind: IC50 (µM)

O=c1[nH]cc(F)c(=O)[nH]1 :: 38.3

====

Tested on: SUM149PT tumor organoids
Experiment: Tumor organoid cytotoxicity (CellTiter Glo 3D), SUM149PT
Format: cell-based
Settings: Homo sapiens, SUM149PT, read-out: IC50 Olaparib (μM) in SUM149PT, Compound 13 2.5 μM
Method: Tumor organoid culture—Cell lines were cultured as tumor organoids by seeding 2,000 to 5,000 cells/well into uncoated 96 well U-bottom Ultra Low Attachment Microplates (Corning) using their corresponding medium. Luminescence was recorded using the EnVision plate reader (PerkinElmer) and values normalized to the controls using GraphPad Prism.
valueKind: IC50

O=C(c1cc(Cc2n[nH]c(=O)c3ccccc23)ccc1F)N1CCN(C(=O)C2CC2)CC1 :: 19 µM

====

test system: SUM149PT tumor organoids; test: Tumor organoid cytotoxicity (CellTiter Glo 3D), SUM149PT; format: cell-based; conditions: Homo sapiens, SUM149PT, Compound 13 2.25 μM; read-out: IC50 doxorubicin (μM) in SUM149PT
valueKind: IC50 (µM)

COc1cccc2c1C(=O)c1c(O)c3c(c(O)c1C2=O)C[C@@](O)(C(=O)CO)C[C@@H]3O[C@H]1C[C@H](N)[C@H](O)[C@H](C)O1 :: 0.016
